Data origin, for the record: the RNAGym collection of RNA variant scans (doi:10.7554/elife.80360)

B1: HDV Ribozyme (parent)
chain: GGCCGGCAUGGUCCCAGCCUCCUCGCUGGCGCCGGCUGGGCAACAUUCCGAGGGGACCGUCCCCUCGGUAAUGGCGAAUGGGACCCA

- Variants of: B1
- assayText: self-cleavage, relative activity (ratio to wild type); higher = more cleavage; co-transcriptional
Exercise: state measured self-cleavage for each of the variants provided.
Answers are plain numbers.

Below are 7 variants. Give each one its self-cleavage.
1. G34U C64A
2. G34U A43G
3. U79G A87G
4. U9A G59A
5. C24U G38U
6. C7U G80C
7. C36G C84G

Response:
[0.268, 0.0978, 0.669, 1.19, 0.115, 0.0773, 0.116]
